Source listed as patent EP0908457B1.

# System: Cyperus iria
# experiment: Preemergence weed control under flooded paddy conditions, CYPIR (Rice Flatsedge)
# Type: in vivo
# experimental_context: 0.2500 kg/ha; preemergence weeds, flooded paddy; herbicidal effect rating 0-9, three to four weeks after treatment
# maps each entry to its CYPIR

# compound, CYPIR
records = [
    ("Cn1c(C(F)(F)F)cc(=O)n(-c2ccc3snc(C(SCCCO)SCCCO)c3c2)c1=O", 7.0),
    ("CCCCS(=O)(=O)OC(C)c1nsc2ccc(-n3c(=O)cc(C(F)(F)F)n(C)c3=O)cc12 (stereo not shown)", 9.0),
    ("COC(OC)c1nsc2ccc(-n3c(=O)cc(C(F)(F)F)n(C)c3=O)cc12", 9.0),
    ("Cn1c(C(F)(F)F)cc(=O)n(-c2ccc3snc(C(=O)NS(=O)(=O)Cc4ccc(C(C)(C)C)cc4)c3c2)c1=O", 8.0),
    ("COc1cc(C(Br)Br)ccc1-c1nsc2ccc(-n3c(=O)cc(C(F)(F)F)n(C)c3=O)cc12", 9.0),
    ("Cn1c(C(F)(F)F)cc(=O)n(-c2ccc3snc(C(=O)NS(=O)(=O)Cc4ccccc4[N+](=O)[O-])c3c2)c1=O", 6.0),
    ("CC(c1ccccc1)S(=O)(=O)NC(=O)c1nsc2ccc(-n3c(=O)cc(C(F)(F)F)n(C)c3=O)cc12 (stereo not shown)", 9.0),
]

----------
# maps each entry to its herbicidal effect rating, CYPIR
# Test system: Cyperus iria
# experiment: Preemergence weed control under flooded paddy conditions, CYPIR (Rice Flatsedge); for herbicidal effect rating, CYPIR: meaning of each grade not given here
# Type: in vivo
# experimental_context: Rate 0.1250 kg/ha; preemergence, flooded paddy; rated three to four weeks after treatment

# compound, herbicidal effect rating, CYPIR
records = [
    ("Cc1ccc(OC(C)(C)C(=O)NS(C)(=O)=O)c(-c2nsc3ccc(-n4c(=O)cc(C(F)(F)F)n(C)c4=O)cc23)c1 [Example 576]", 3.0),
    ("COc1cc2c(cc1-c1nsc3ccc(-n4c(=O)cc(C(F)(F)F)n(C)c4=O)cc13)CCC2 [Example 380]", 9.0),
    ("CCCCS(=O)(=O)NC(=O)COc1ccc(C)cc1-c1nsc2ccc(-n3c(=O)cc(C(F)(F)F)n(C)c3=O)cc12 [Example 573]", 5.0),
]

----------
# Test system: Cyperus iria
# experiment: Preemergence weed control under flooded paddy conditions, CYPIR (Rice Flatsedge)
# Type: in vivo
# experimental_context: Rate 0.5000 kg/ha; preemergence, flooded paddy; rated three to four weeks after treatment
# maps each entry to its CYPIR herbicidal effect rating

# compound, CYPIR herbicidal effect rating
rows = [
    ("C=Cc1nsc2ccc(-n3c(=O)cc(C(F)(F)F)n(C)c3=O)cc12 [Example 276]", 9.0),
    ("CC(=O)Nc1nnc(S(=O)(=O)NC(=O)COc2ccc(C)cc2-c2nsc3ccc(-n4c(=O)cc(C(F)(F)F)n(C)c4=O)cc23)s1 [Example 269]", 0.0),
    ("CO/N=C/c1nsc2ccc(-n3c(=O)cc(C(F)(F)F)n(C)c3=O)cc12 [Example 277]", 9.0),
    ("Cn1c(C(F)(F)F)cc(=O)n(-c2ccc3snc(-c4ccc(OCC(=O)OC(C)(C)C)cc4)c3c2)c1=O [Example 273]", 4.0),
    ("COC(=O)COc1c(-c2nsc3ccc(-n4c(=O)cc(C(F)(F)F)n(C)c4=O)cc23)ccc(C)c1C [Example 274]", 2.0),
]
